- Target or test system: Mu-type opioid receptor (Homo sapiens)
- Sequence (P35372 whole entry): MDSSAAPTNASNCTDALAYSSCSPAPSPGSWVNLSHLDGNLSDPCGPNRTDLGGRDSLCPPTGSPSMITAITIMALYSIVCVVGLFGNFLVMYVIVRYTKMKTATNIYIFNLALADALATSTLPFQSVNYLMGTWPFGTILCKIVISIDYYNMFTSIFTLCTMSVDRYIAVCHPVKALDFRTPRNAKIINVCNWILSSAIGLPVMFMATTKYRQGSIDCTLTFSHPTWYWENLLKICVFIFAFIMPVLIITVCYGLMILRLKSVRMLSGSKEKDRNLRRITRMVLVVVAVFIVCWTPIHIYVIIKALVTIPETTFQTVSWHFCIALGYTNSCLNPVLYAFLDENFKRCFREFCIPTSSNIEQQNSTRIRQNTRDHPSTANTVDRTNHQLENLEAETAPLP
- Assay overview: Inhibition of [125I]Enkephalin binding to human mu opioid receptor from membranes of HEK293 cells
- Type: cell membranes
Exercise: for every item that follows, state its recorded IC50.
Numbers only, in µM.

| Molecule | Reported value |
| --- | --- |
| O=c1c(-c2ccc(Cl)cc2Cl)cncn1C(CN1CCCC1)c1ccccc1 (centres undefined) | 9.6 |

Next item in the queue.
Please report the recorded IC50 for O=c1c(Nc2ccc(C(F)(F)F)cc2)cccn1C(CN1CCCC1)c1ccccc1 (centres undefined) . 10

====

- Target or test system: Mu-type opioid receptor (Homo sapiens)
- Assay overview: Inhibition of [125I]Enkephalin binding to human mu opioid receptor from membranes of HEK293 cells
- Format: cell membranes
Exercise: for every item that follows, state its recorded IC50.

| Molecule | Value type | Reported value |
| --- | --- | --- |
| CC(=O)c1ccc(-c2cccn(C(CN3CCC(O)C3)c3ccccc3)c2=O)cc1 (centres undefined) | IC50 | 1.75 µM |
| O=C1COc2ccc(C(CN3CCCC3)n3cccc(-c4ccc(C(F)(F)F)cc4)c3=O)cc2N1 (centres undefined) | IC50 | > 10 µM |
| O=c1c(-c2ccc(C(F)(F)F)cc2)cccn1C(CN1C=CC=CC=N1)c1ccccc1 (centres undefined) | IC50 | > 10 µM |
| O=C(O)COc1cccc(C(CN2CCCC2)n2cccc(-c3ccc(C(F)(F)F)cc3)c2=O)c1 (centres undefined) | IC50 | > 10 µM |
| COc1cccc(OC)c1-c1cccn(C(CN2CCC(O)C2)c2ccccc2)c1=O (centres undefined) | IC50 | 3.91 µM |
| O=c1c(-c2ccccc2)cccn1C(CN1CCC(O)C1)c1ccccc1 (stereo in doubt; 20a) | IC50 | > 10 µM |
| O=c1c(-c2ccc(OC(F)(F)F)cc2)cccn1C(CN1CCC(O)C1)c1ccccc1 (centres undefined) | IC50 | > 5 µM |
| COc1ccc(Cl)cc1-c1cccn(C(CN2CCC(O)C2)c2ccccc2)c1=O (centres undefined) | IC50 | 0.19 µM |

Next item in the queue.
Please report the recorded IC50 for O=c1c(-c2ccc(F)cc2)cccn1C(CN1CCC(O)C1)c1ccccc1 (centres undefined) . > 10 µM
